The values you see were collected from patent US10723726B2.

- assay.explanation: in vivo
- test.context: male, Beagle, dog, iv, 0.5 mg/kg, Plasma concentration
Structures can show the parent of a compound that is named as a salt.
experimental.readout: concentration at 5 h (ng/mL)

compound	experimental.readout	readout.number
O=C(O)c1ccc(-c2ccc(/C=C3\SC(=S)N(Cc4ccccc4)C3=O)o2)cc1 [LA1 choline salt]	concentration at 5 h	67.7

====

- assay.explanation: in vivo
- test.context: male, beagle, dog, po, 0.5 mg/kg, Absolute Bioavailability F %

molecule.smiles	unit.text	bioavailability
O=C(O)c1ccc(-c2ccc(/C=C3\SC(=S)N(Cc4ccccc4)C3=O)o2)cc1	%	50.6

====

- assay.explanation: in vivo
- test.context: male, Beagle, dog, iv, 0.5 mg/kg, Plasma concentration

molecule.smiles	unit.text	concentration at 12 h
O=C(O)c1ccc(-c2ccc(/C=C3\SC(=S)N(Cc4ccccc4)C3=O)o2)cc1	ng/mL	7.93
